Tested on: Noggin (protein binding on small-molecule microarray)
Assay: Noggin binders on small-molecule microarray, primary screen, biochemical, 635/667 nm fluorescence (AID 1095);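 further: score merges 667 nm feature fluorescence with signal to noise over triplicate slides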
Conditions: 635 nm fluorescence, higher = more signal
composite z-score below -0.5 gives -1; composite z-score at or above it gives 1.

Task: Decide: is the reported value of composite z-score for CC(=O)N1CC(C(O)C2C=CC3C(=O)NC(=O)C3N2Nc2ccc(Cl)cc2Cl)c2ccccc21 (stereo not drawn) equal to or greater than -0.5?
Output: -1

Task: Decide: is the reported value of composite z-score for `CCc1cccc(NC(=O)O[C@H]2[C@H](OC(=O)Nc3ccccc3)[C@H](OC(=O)Nc3ccccc3)[C@@H](OC)O[C@@H]2CO)c1` equal to or greater than -0.5?
Output: 1

Task: Decide: is the reported value of composite z-score for `C=CCNC(=O)[C@H]1[C@@H]2C(=O)O[C@@H](c3ccccc3)[C@@H](c3ccccc3)N2[C@@H](c2ccc(OCCO)cc2)[C@]12C(=O)Nc1ccc(C#CCNC(N)=O)cc12` equal to or greater than -0.5?
Output: 1

Task: Decide: is the reported value of composite z-score for `O=c1cccc(-c2ccco2)o1` equal to or greater than -0.5?
Output: 1

Task: Decide: is the reported value of composite z-score for O=C1C2C=CC(C(O)c3cc(C(F)(F)F)cc(C(F)(F)F)c3)N(Nc3ccccc3F)C2C(=O)N1c1ccccc1 (stereo not drawn) equal to or greater than -0.5?
Output: -1

Task: Decide: is the reported value of composite z-score for O=C1OCCC/C=C\[C@H]2OC34C=CCN(c5ccc6ccccc6c5)C(=O)[C@H]3N(CCCO)C(=O)[C@@H]4C12 (stereo partly drawn) equal to or greater than -0.5?
Output: -1

Task: Decide: is the reported value of composite z-score for O=C1C2C=CC(C(O)c3ccc(I)cc3)N(Nc3ccccc3)C2C(=O)N1c1ccccc1 (stereo not drawn) equal to or greater than -0.5?
Output: 1

Task: Decide: is the reported value of composite z-score for CC=CC(O)C1C=CC2C(=O)NC(=O)C2N1Nc1ccccn1 (stereo not drawn) equal to or greater than -0.5?
Output: 1

====

System: Human papillomavirus type 1a protein E7 (residues 44-93)
Assay: HPV1a E7 fragment binders on microarrays, primary screen, biochemical, small-molecule microarray, residues 44-93, 635 nm fluorescence (AID 1108);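 further: E7 fragment applied at 1 µg/mL in TBST for 1 h at 4 C; score combines spot fluorescence with its signal to noise ratio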
Settings: small-molecule microarray binding, fluorescence 635 nm; higher = more signal
Please assign a class to every record based on measured composite z-score, with ranges c1 = under 0.3, c2 = from 0.3 up to 1, c3 = 1 and over

Task: Field: class (composite z-score) — entry: `Cc1cccc([C@H]2C[C@H]3C(I)=C[C@@H]2C(=O)[C@]32CO2)c1`
Output: c1

Task: Field: class (composite z-score) — entry: `C=CC[C@H](OC(=O)Nc1ccc(SC)cc1)c1ccc(OCCO)cc1`
Output: c1

Task: Field: class (composite z-score) — entry: `C=C(CCCC)C(=O)CC[C@H](OC(C)=O)c1ccc(OCCO)cc1`
Output: c1

Task: Field: class (composite z-score) — entry: COc1cc(NN2C(C(O)C3CCCCC3)C=CC3C(=O)N(C)C(=O)C32)cc(OC)c1OC (stereo not given)
Output: c3

Task: Field: class (composite z-score) — entry: `NC(=O)NCC#Cc1ccc2c(c1)[C@]1(C(=O)N2)[C@H](C(=O)N2CCN(c3ncccn3)CC2)[C@H]2C(=O)O[C@H](c3ccccc3)[C@H](c3ccccc3)N2[C@@H]1c1ccc(OCCO)cc1`
Output: c3

Task: Field: class (composite z-score) — entry: CCN(CC)c1ccc(N2CC=CC34O[C@@H]5C=CCCOC(=O)C5[C@H]3C(=O)N(CCO)[C@@H]4C2=O)cc1 (stereo not given in full)
Output: c1

Task: Field: class (composite z-score) — entry: `[N-]=[N+]=NCc1ccccc1[C@@H]1OC(c2ccc(OCCCO)cc2)=N[C@]1(Cc1ccccc1N=[N+]=[N-])C(=O)N1CCCCC1`
Output: c3

Task: Field: class (composite z-score) — entry: `COc1cccc(/C=C(\C#N)C(=O)Nc2c(C)n(C)n(-c3ccccc3)c2=O)c1`
Output: c3

Task: Field: class (composite z-score) — entry: COc1cc(C(O)C2C=CC3C(=O)N(Cc4ccccc4)C(=O)C3N2n2cnnc2)cc(OC)c1OC (stereo not given)
Output: c2

Task: Field: class (composite z-score) — entry: `COc1ccc([Si](C)(C)[C@@H]2[C@@H](CCn3cc([C@H](O)c4ccccc4)nn3)O[C@]3(C(=O)N(c4ccccc4)c4ccccc43)[C@H]2C)cc1`
Output: c1

Task: Field: class (composite z-score) — entry: `COc1cc(CO)cc(I)c1O[C@H]1C=C(C(=O)NCCO)C[C@@H](NCC2CCCCC2)[C@@H]1O`
Output: c2

Task: Field: class (composite z-score) — entry: O=C1C2C=CC(C(O)C=Cc3ccc([N+](=O)[O-])cc3)N(Nc3ccccc3)C2C(=O)N1c1ccccc1 (stereo not given)
Output: c3

Task: Field: class (composite z-score) — entry: CCCCCN1CC=CC23O[C@@H]4/C=C\CCC(C)OC(=O)C4[C@H]2C(=O)N(CCCCCCO)[C@@H]3C1=O (stereo not given in full)
Output: c2

Task: Field: class (composite z-score) — entry: C=C(C)[C@@H]1CC=C(C(O)C2C=CC3C(=O)N(c4ccccc4)C(=O)C3N2Nc2ccc(C#N)cc2)CC1 (stereo not given in full)
Output: c3

Task: Field: class (composite z-score) — entry: CC(C)c1ccc(NN2C(C(O)Cc3ccccc3)C=CC3C(=O)N(c4ccccc4)C(=O)C32)cc1 (stereo not given)
Output: c3

Task: Field: class (composite z-score) — entry: `COCCCNC(=O)[C@@H]1c2ccccc2C(=O)N(C2Cc3ccccc3C2)[C@H]1c1ccc(CO)cc1`
Output: c2

====

Reported composite z-score by item:
Target: Torsin-1A-interacting protein 1 (Homo sapiens) (UniProt Q5JTV8)
Sequence (Q5JTV8 whole entry, looked up): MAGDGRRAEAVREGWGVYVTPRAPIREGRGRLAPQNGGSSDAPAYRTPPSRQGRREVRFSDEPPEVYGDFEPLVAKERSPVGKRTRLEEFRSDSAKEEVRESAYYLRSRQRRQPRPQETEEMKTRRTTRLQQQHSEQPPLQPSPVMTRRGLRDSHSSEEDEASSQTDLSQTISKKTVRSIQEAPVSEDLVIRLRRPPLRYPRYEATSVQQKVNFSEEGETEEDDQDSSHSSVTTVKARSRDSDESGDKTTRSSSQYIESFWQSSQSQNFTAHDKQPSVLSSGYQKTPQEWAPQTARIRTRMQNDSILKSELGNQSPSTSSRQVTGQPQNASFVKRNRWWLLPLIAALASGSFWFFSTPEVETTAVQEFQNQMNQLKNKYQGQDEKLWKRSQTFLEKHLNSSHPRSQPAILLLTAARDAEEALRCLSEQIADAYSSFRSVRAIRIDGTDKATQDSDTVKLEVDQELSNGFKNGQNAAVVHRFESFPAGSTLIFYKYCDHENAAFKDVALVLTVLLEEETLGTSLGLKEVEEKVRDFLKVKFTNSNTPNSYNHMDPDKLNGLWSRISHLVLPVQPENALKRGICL
Assay: LAP1 binders from COS7 cell lysate, primary screen, small-molecule microarray, 635/667 nm fluorescence (AID 1116)
Conditions: COS7-hLAP1 lysate binding, 635 nm fluorescence, higher = more signal
The response must contain the number and no unit.

See these solved cases before continuing.
C#C[C@@H](CC)O[Si](C#CCCCC#N)(C(C)C)C(C)C; 0.372
Cc1ccc(S[C@]2(C(=O)NC(C)C)CC(=O)N(Cc3ccccc3Cl)[C@@H]2c2ccc(CO)cc2)cc1; 0.98
CC(C)(C)OC(=O)CC[C@]12N=C(c3ccc(OCCCO)cc3)O[C@H]1c1ccccc1N(Cc1ccccc1)C2=O; 1.36
CCN(CC)c1ccc(N2CC=CC34O[C@@H]5C=CCCOC(=O)C5[C@H]3C(=O)N(CCO)[C@@H]4C2=O)cc1 (stereo not given in full); -1.01
CCCCCCCCCCC(O)C1C=CC2C(=O)N(C)C(=O)C2N1Nc1cc(OC)c(OC)c(OC)c1 (stereo not given); -0.232

Task: // Input: `O=C1N[C@@H](Cc2ccccc2)C(=O)N2[C@@H]1C[C@@H](C(=O)O)[C@H]2c1ccc(O)cc1` . Output its composite z-score only.
Output: 0.466

Task: // Input: `COCCOC(=O)N1C(=O)[C@@]2(c3cc(C#CC4(O)CCCCCC4)ccc31)[C@H](c1ccc(OCCO)cc1)N1[C@H](c3ccccc3)[C@H](c3ccccc3)OC(=O)[C@H]1[C@@H]2C(=O)Nc1nc2ccccc2s1` . Output its composite z-score only.
Output: 1

====

Test: S. cerevisiae RM11-1a growth modifiers, primary screen, strain RM11-1a, OD600, basal, 24 h (AID 1177);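 further: cultures grown under basal conditions with no added stressor; test concentration not given here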
Conditions: OD600, 24 h, higher = more signal, called active from +8 up or from −8 down
Observable: z-score
The response must contain the number and no unit.

C=C(CCCC)/C(=C/C[C@H](OC(C)=O)c1ccc(OCCO)cc1)c1cc(C(=O)OC)ccc1OC; -0.0587
CC(C)N1CC=CC23O[C@@H]4/C=C\CCCOC(=O)C4[C@H]2C(=O)N(CCCCCCO)[C@@H]3C1=O (some centres not stated); 0.0759
COc1ccc(C#Cc2ccc3c(c2)[C@]2(C(=O)N3)[C@H](C(=O)Nc3nc4ccccc4s3)[C@H]3C(=O)O[C@H](c4ccccc4)[C@H](c4ccccc4)N3[C@@H]2c2ccccc2OCCO)cc1; 1.66
CCCC=C(CCC)[C@@H](NS(=O)(=O)c1cccc2cccnc12)c1ccc(-c2ccccc2)cc1; 0.52
CN(C)CCCC[C@@H]1NC(=O)[C@@H]2C[C@H](C(=O)O)[C@H](c3cccc(OCCO)c3)N2C1=O; -0.547
CN(C)CCCNC(=O)[C@@H]1c2ccccc2C(=O)N(C2CCCCC2)[C@H]1c1ccc(CO)cc1; 0.409
CC(C)OC(=O)CC(=O)CC(O)c1ccc([N+](=O)[O-])cc1 (configuration not stated); 0.0857
NCCCCCNC(=O)[C@@H]1C[C@@H]2C(=O)N3CCC[C@H]3C(=O)N2[C@@H]1c1ccc(O)cc1; 0.801

Task: // Input: CN1C(=O)C2C=CC(C(O)c3ccc(I)cc3)N(Nc3ccccc3)C2C1=O (configuration not stated) . Output its z-score only.
Output: -0.0359

Task: // Input: Cc1ccccc1C(O)C1C=CC2C(=O)NC(=O)C2N1Nc1ccc(Cl)cc1Cl (configuration not stated) . Output its z-score only.
Output: 0.251

Task: // Input: `CCCCC(=C=CC[C@H](O)c1ccc(OCCO)cc1)C[C@H](O)COCc1ccccc1` . Output its z-score only.
Output: 0.556

Task: // Input: CCN(CC)c1ccc(N2CC=CC34O[C@@H]5C=CCCOC(=O)C5[C@H]3C(=O)N(CCO)[C@@H]4C2=O)cc1 (some centres not stated) . Output its z-score only.
Output: -0.106

Task: // Input: `[N-]=[N+]=NCc1ccccc1[C@H]1OC(c2ccc(OCCCO)cc2)=N[C@@]1(CCS(=O)(=O)c1ccccc1)C(=O)NCc1ccccc1` . Output its z-score only.
Output: 2.19

Task: // Input: O=C1NC(=O)C2C1C=CC(C(O)c1ccccn1)N2Nc1ccc(Cl)cc1Cl (configuration not stated) . Output its z-score only.
Output: 0.351
